test system: Plasmodium falciparum; assay: GSK_TCMDC: Inhibition of Plasmodium falciparum Dd2 in whole red blood cells, using parasite LDH activity as an index of growth. Test compounds present at 2uM; format: functional
# reported Inhibition; entries follow

[
  {
    "molecule": "Cl.Clc1ccc(C2CCN(CCCOc3ccc4c(c3)CCNCC4)CC2)cc1",
    "uom": "%",
    "Inhibition": 28
  },
  {
    "molecule": "COc1ccc(NC(=O)c2cn(-c3ccc(C(C)(C)C)cc3)nc2C)cc1N1CCN(C)CC1",
    "uom": "%",
    "Inhibition": 71
  },
  {
    "molecule": "Cc1cc(N[C@@H](Cc2ccccc2)C(=O)Nc2ccccc2)nc(NCCc2ccccn2)n1.O=C(O)C(F)(F)F",
    "uom": "%",
    "Inhibition": 50
  },
  {
    "molecule": "CC12CCC(C(=O)N(CC(O)Cn3c4ccc(Cl)cc4c4cc(Cl)ccc43)C1=O)C2(C)C (centres undefined)",
    "uom": "%",
    "Inhibition": 99
  },
  {
    "molecule": "CCC[C@@H]([C@@H](CC(C)C)C(=O)N[C@H](C(=O)Nc1nccs1)C(C)(C)SCCNC(=O)OCC)N(O)C=O",
    "uom": "%",
    "Inhibition": 97
  },
  {
    "molecule": "C(=Cc1ccccc1)C=NN=c1cc[nH]c2ccccc12",
    "uom": "%",
    "Inhibition": 100
  },
  {
    "molecule": "CCNc1cc(C(=O)N[C@@H](Cc2ccccc2)[C@H](O)CNC2CCC(C)(C)C2)cc(N2CCCCS2(=O)=O)c1.Cl (some centres undefined)",
    "uom": "%",
    "Inhibition": 98
  },
  {
    "molecule": "CCNc1cc(C(=O)N[C@@H](Cc2ccccc2)[C@H](O)CNC(C)(C)Cc2cccc(OC)c2)cc(N2CCCC2=O)c1.O=CO",
    "uom": "%",
    "Inhibition": 97
  },
  {
    "molecule": "O=C(NCC1CCN(Cc2ccsc2)C1)c1cc(-c2cccc(C(F)(F)F)c2)cs1.O=C(O)C(F)(F)F (centres undefined)",
    "uom": "%",
    "Inhibition": 15
  },
  {
    "molecule": "CCc1cc(NC(=O)Nc2ccnc3ccccc23)ccc1OC.Cl",
    "uom": "%",
    "Inhibition": 24
  },
  {
    "molecule": "Cc1nn(C2CCS(=O)(=O)C2)c(C)c1C1Nc2ccccc2C(=O)N1Cc1ccc2c(c1)OCO2 (centres undefined)",
    "uom": "%",
    "Inhibition": 93
  },
  {
    "molecule": "Cc1cccc2nc(-c3cccc(-c4ccc(CNCc5cccc(N)c5)cc4)c3)[nH]c12.O=C(O)C(F)(F)F",
    "uom": "%",
    "Inhibition": 93
  },
  {
    "molecule": "Cl.O=c1cc(NCCCNCc2sc(Br)nc2Br)[nH]c2ccccc12",
    "uom": "%",
    "Inhibition": 44
  },
  {
    "molecule": "COc1ccc(OC)c2c1CCN(CCN1CCC(C(=O)Nc3ccc(C(=O)Nc4ccc(Cl)cc4)cc3)CC1)C2",
    "uom": "%",
    "Inhibition": 100
  },
  {
    "molecule": "COc1ccc(-c2ccc(NC(=O)c3ccc(C#N)cc3)cc2)cc1CN1CCCC1.O=C(O)C(F)(F)F",
    "uom": "%",
    "Inhibition": 51
  },
  {
    "molecule": "CCOc1cccc(C(=O)Nc2nonc2-c2ccc(OC)c(OC)c2)c1",
    "uom": "%",
    "Inhibition": 95
  },
  {
    "molecule": "Cc1cc2ccccc2n1CC(=O)N1CC(C(=O)N2CCCCC2)Oc2ccccc21 (centres undefined)",
    "uom": "%",
    "Inhibition": 77
  },
  {
    "molecule": "CN(C)CCCOc1ccc(-c2nc(-c3ccc4c(c3)CCC4=NO)c(-c3ccncc3)[nH]2)cc1.Cl",
    "uom": "%",
    "Inhibition": 63
  },
  {
    "molecule": "O=C(N[C@H]1CCN(CCc2ccc(O[C@H]3CCNC3)c(F)c2)C1)c1ccc(Cl)c(Cl)c1.O=C(O)C(F)(F)F",
    "uom": "%",
    "Inhibition": 23
  },
  {
    "molecule": "Cc1ccc2cc(C3NC(=O)c4ccccc4N3)c(Cl)nc2c1 (centres undefined)",
    "uom": "%",
    "Inhibition": 38
  },
  {
    "molecule": "O=C(CN1CCN(C(C(=O)Nc2cc(C(F)(F)F)ccc2Cl)c2ccccc2)CC1)NC1CC1 (centres undefined)",
    "uom": "%",
    "Inhibition": 93
  },
  {
    "molecule": "FC(F)(F)c1cccc(CCNc2nccc(NCc3ccccc3Cl)n2)c1",
    "uom": "%",
    "Inhibition": 38
  },
  {
    "molecule": "CC1CCN(c2nc(C(=O)Nc3cccc4c3CCCC4)c(C(C)C)s2)CC1.O=C(O)C(F)(F)F",
    "uom": "%",
    "Inhibition": 49
  },
  {
    "molecule": "COc1cccc(-c2csc(C(=O)NCC3CCN(Cc4ccc(C(C)(C)C)cc4)C3)c2)c1.O=C(O)C(F)(F)F (centres undefined)",
    "uom": "%",
    "Inhibition": 10
  },
  {
    "molecule": "O=C(CCCCCNC(=O)c1ccc(O)c(-c2ccc(Cl)c(Cl)c2)c1)NCc1cccc2ccccc12",
    "uom": "%",
    "Inhibition": 15
  },
  {
    "molecule": "CC(C)N1CCC(N(Cc2ccc(-c3ccc(C(F)(F)F)cc3)cc2)C(=O)Cn2c(SCc3cccc(F)c3F)cc(=O)c3ccccc32)CC1.O=C(O)C(O)C(O)C(=O)O",
    "uom": "%",
    "Inhibition": 77
  },
  {
    "molecule": "CC(C)Sc1nncc(-c2cnnc(SC(C)C)n2)n1",
    "uom": "%",
    "Inhibition": 100
  },
  {
    "molecule": "CC(Cc1ccc(OCc2ccccc2)cc1)Nc1nc(O)c2ccccc2n1.Cl (centres undefined)",
    "uom": "%",
    "Inhibition": 96
  },
  {
    "molecule": "O=C(NCC1CCN(Cc2cccc(C(F)(F)F)c2)C1)c1cc(-c2cccc(C(F)(F)F)c2)cs1.O=C(O)C(F)(F)F (centres undefined)",
    "uom": "%",
    "Inhibition": 74
  }
]
